Data provenance: patent US20110144303A1

Assay: Pharmacokinetics of SP-43 and SP-42 in Rat following IV dose
Conditions: in vivo
measurementName: Cmax (ng/mL)
// note: answer is a bare numeric in ng/mL

## Task Record request: Cmax value, item CC(=O)N[C@@H](CCC(N)=O)C(=O)N[C@@H](CO)C(=O)N[C@@H](CCC(N)=O)C(=O)N[C@@H](CCC(N)=O)C(=O)N[C@H](C(=O)N[C@@H](Cc1ccccc1)C(=O)N[C@@H]1CCCCCCC=CCCC[C@@H](C(=O)N[C@@H](CCC(N)=O)C(=O)N[C@@H](CC(N)=O)C(N)=O)NC(=O)[C@H](CC(C)C)NC(=O)[C@H](CC(C)C)NC(=O)[C@H](CCCNC(=N)N)NC(=O)[C@H](Cc2c[nH]c3ccccc23)NC(=O)[C@H](CC(C)C)NC(=O)[C@H](CC(N)=O)NC1=O)[C@@H](C)O
## Result 41200
